Taken from patent US10233186B2.

Some compounds, each annotated with its measured IC50.
- test.target: human ALK2 R206H (Homo sapiens, UniProt Q04771, R206H)
- Construct: expressed in transfected cells; host or cells: HEK293 (ATCC CRL1573), lentivirus transduction, blasticidin selection
- Sequence (Q04771 21-509 R206H): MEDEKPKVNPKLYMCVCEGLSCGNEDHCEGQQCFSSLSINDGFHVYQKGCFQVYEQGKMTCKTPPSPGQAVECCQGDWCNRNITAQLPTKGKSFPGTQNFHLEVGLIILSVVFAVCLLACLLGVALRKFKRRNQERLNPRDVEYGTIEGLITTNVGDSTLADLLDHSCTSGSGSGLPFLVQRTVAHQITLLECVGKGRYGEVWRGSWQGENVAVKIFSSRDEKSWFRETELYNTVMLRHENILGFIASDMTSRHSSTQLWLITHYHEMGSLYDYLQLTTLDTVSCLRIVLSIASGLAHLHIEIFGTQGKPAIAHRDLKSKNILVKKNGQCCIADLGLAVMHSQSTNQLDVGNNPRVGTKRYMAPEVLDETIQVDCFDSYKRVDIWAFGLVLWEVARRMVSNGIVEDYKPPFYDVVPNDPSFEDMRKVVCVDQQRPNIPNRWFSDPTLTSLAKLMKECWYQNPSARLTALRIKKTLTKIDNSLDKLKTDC
- experiment.description: Cell-based ALK2-R206H cell activity assay (Smad1-Ser463/Ser465 phosphorylation by AlphaLISA in HEK293-ALK2-R206H cells)
- experimental.context: read-out: Cell Line (Cell Assay IC50)

>  <compound>
CC(C)N1CCC(c2ccc(-c3cc4c(N5CCN(C(=O)OC6COC6)CC5)ccnn4c3)c(F)c2)CC1

>  <test.target>
human ALK2 R206H (Homo sapiens, UniProt Q04771, R206H)

>  <IC50>
< 100 nM

$$$$
>  <compound>
CCN1CCN(c2ccc(-c3cc4c(N5CCN(C(=O)[C@@H]6C[C@H]6F)CC5)ccnn4c3)cc2)CC1

>  <test.target>
human ALK2 R206H (Homo sapiens, UniProt Q04771, R206H)

>  <IC50>
< 100 nM

$$$$
>  <compound>
CC(C)NC(=O)N1CCN(c2ccnn3cc(-c4ccc([C@@H]5CN(C(C)C)CC[C@H]5OC(F)F)cc4)cc23)CC1

>  <test.target>
human ALK2 R206H (Homo sapiens, UniProt Q04771, R206H)

>  <IC50>
< 100 nM

$$$$
>  <compound>
CCOC(=O)N1CCN(c2ccnn3cc(-c4ccc([C@@H]5CCCN(C(C)C)C5)cc4)cc23)CC1

>  <test.target>
human ALK2 R206H (Homo sapiens, UniProt Q04771, R206H)

>  <IC50>
< 100 nM

$$$$
>  <compound>
CCN1CC[C@@H](c2ccc(-c3cc4c(N5CCN(C(=O)[C@H]6C[C@H]6F)CC5)ccnn4c3)cc2)C1

>  <test.target>
human ALK2 R206H (Homo sapiens, UniProt Q04771, R206H)

>  <IC50>
< 100 nM

$$$$
>  <compound>
CC(C)N1CCN(C)[C@@](C)(c2ccc(-c3cc4c(N5CCN(C(=O)C6CC6)CC5)ccnn4c3)cc2)C1

>  <test.target>
human ALK2 R206H (Homo sapiens, UniProt Q04771, R206H)

>  <IC50>
< 100 nM

$$$$
>  <compound>
O=C(OC1COC1)N1CCN(c2ccnn3cc(-c4ccc(C5CCCN5)cn4)cc23)CC1 (centres unmarked)

>  <test.target>
human ALK2 R206H (Homo sapiens, UniProt Q04771, R206H)

>  <IC50>
< 100 nM

$$$$
>  <compound>
CCN1CCC(c2ccc(-c3cc4c(N5CCN(C(=O)N6CCC(O)CC6)CC5)ccnn4c3)cc2)CC1

>  <test.target>
human ALK2 R206H (Homo sapiens, UniProt Q04771, R206H)

>  <IC50>
100 to 500 nM

$$$$
>  <compound>
CC(C)N1CCC(c2ccc(-c3cc4c(N5CCN(C(=O)NC6CCC6)CC5)ccnn4c3)cc2)CC1

>  <test.target>
human ALK2 R206H (Homo sapiens, UniProt Q04771, R206H)

>  <IC50>
< 100 nM

$$$$
>  <compound>
CC(C)N1CCC[C@@H](c2ccc(-c3cc4c(N5CCN(C(=O)[C@H]6CC[C@H](C#N)CC6)CC5)ccnn4c3)cc2)C1

>  <test.target>
human ALK2 R206H (Homo sapiens, UniProt Q04771, R206H)

>  <IC50>
< 100 nM

$$$$
>  <compound>
CC(C)N1CC[C@H](c2ccc(-c3cc4c(N5CCN(C(=O)[C@H]6CC[C@H](O)CC6)CC5)ccnn4c3)cc2)C1

>  <test.target>
human ALK2 R206H (Homo sapiens, UniProt Q04771, R206H)

>  <IC50>
< 100 nM

$$$$
>  <compound>
CCNC(=O)N1CCN(c2ccnn3cc(-c4ccc([C@@H]5CCCN5C(C)C)nc4)cc23)CC1

>  <test.target>
human ALK2 R206H (Homo sapiens, UniProt Q04771, R206H)

>  <IC50>
< 100 nM

$$$$
>  <compound>
CC(C)N1CCN(c2ccc(-c3cc4c(N5CCN(C(=O)[C@H]6C[C@H](C#N)C6)CC5)ccnn4c3)cc2)CC1

>  <test.target>
human ALK2 R206H (Homo sapiens, UniProt Q04771, R206H)

>  <IC50>
< 100 nM

$$$$
>  <compound>
C[C@@H]1CN(c2ccnn3cc(-c4ccc(N5CCNCC5)cc4)cc23)CCN1C(=O)CCC#N

>  <test.target>
human ALK2 R206H (Homo sapiens, UniProt Q04771, R206H)

>  <IC50>
< 100 nM

$$$$
